- Test summary: terephthalic acid (TPA) released, HPLC; higher = more TPA released; extreme values may be limits of the assay
- Condition notes: PET substrate: cryPow; 70 °C; pH 9.5; 24 h
Quick rule: terephthalic acid of at least 0.5 mM means TRUE, below that means FALSE.

Input sequence | Assigned category
QDNPYERGPDPTEDSIEAIRGPFSVATERVSSFASGFGGGTIYYPRETDEGTFGAVAVAPGFTASQGSMSWYGERVASHGFIVFTIDTNTRLDAPGQRGRQLLAALDYLVERSDRKVRERLDPNRLAVMGHSMGGGGSLEATVMRPSLKASIPLTPWHLDKTWGQVQVPTFIIGAELDTIAPVSTHAKPFYESLPSSLPKAYMELCGATHFAPNIPNTTIAKYVISWLKRFVDEDTRYSQFLCPNPTDRAICEYRSTCPY [Cut190*SS] | FALSE
SNPYQRGPNPTRSALTATGPFSVATYTVSRLLVSGFGGGVIYYPTGTSLTFGGIAMSPGYTADASSLAWLGRRLASHGFVVLVINTNSRFDGPDSRARQLSAALNYLRTSSPSAVRARLDANRLAVAGHSMGGGGTLRIAEQNPSLKAAVPLTPWHPDKTFNTSVPVLIVGAQADTVAPVSQHAIPFYQNLPSTTPKVYVELCNASHIAPNSPNAAISVYTISWMKLWVDNDTRYRQFLCNVNDPALCDFRTNNRHCQ [LCC-ICCG I6M] | FALSE
SNPYQRGPNPTRSALTADGPFSVRTYTISRLSVSGFGGGVIYYPTGTSLTFGGIAMSPGYTADASSLAWLGRRLASHGFVVLVINTNSRFDGPDSRASQLSAALNYLRTSSPSAVRARLDANRLAVAGHSMGGGGTLRIAEQNPSLKAAVPLTPWHTDKTFNTSVPVLIVGAEADTVAPVSQHAIPFYQNLPSTTPKVYVELCNASHIAPNSPNAAISVYTISWMKLWVDNDTRYRQFLCNVNDPALCDFRTNNRHCQ [LCC-ICCG RIP] | FALSE
ANPYERGPNPTDALLEARSGPFSVSEENVSRLSASGFGGGTIYYPRENNTYGAVAISPGYTGTEASIAWLGERIASHGFVVITIDTITTLDQPDSRAEQLNAALNHMINRASSTVRSRIDSSRLAVMGHSMGGGGSLRLASQRPDLKAAIPLTPWHLNKNWSSVTVPTLIIGADLDTIAPVATHAKPFYNSLPSSISKAYLELDGATHFAPNIPNKIIGKYSVAWLKRFVDNDTRYTQFLCPGPRDGLFGEVEEYRSTCPF [TfCut2] | FALSE

stdin: // inclusive: terephthalic acid at least 0.5 mM? input: SNPYQRGPNPTRSALTADGPFSVATYTVSRLSVSGFGGGVIYYPTGTSLTFGGIAMSPGYTADASSLAWLGRRLASHGFVVLVINTNSRFDGPDSRASQLSAALNYLRTSDPSAVRARLDANRLAVAGHSMGGGATLRIAEQNPSLKAAIPLTPWHTQKTFNTSVPVLIVGAEADTVAPVSQHAIPFYQNLPSTTPKVYVELCNASHIAPNSNNAAISVYTISWMKLWVDNDTRYRQFLCNVNDPALCDFRTNNRHCQ [LCC-ICCG DAQI]
stdout: TRUE

stdin: Please check the record ADNPYQRGPDPTNASIEAATGPFAVGTQPIVGASGFGGGQIYYPTDTSQTYGAVVIVPGFISVWAQLAWLGPRLASQGFVVIGIETSTITDLPDPRGDQALAALDWATTRSPVRSRIDRTRLAAAGWSMGGGGLRRAACQRPSLKAIVGMAPWNTEKNWSCVTVPTLFFGGSSDAVASPNDHAKPFYNSITRAEKDYIELCNADHFFPTSANTTMAKYFISWLKRWVDNDTRYTQFLCPGPSTGLFAPVCASMNTCPF [CaPETaseM9] and state if its terephthalic acid is at or above 0.5 mM.
stdout: FALSE

stdin: Given QTNPYARGPNPTAASLEASAGPFTVRSFTVSRPSGYGAGTVYYPTNAGGTVGAIAIVPGYTARQSSIKWWGPRLASHGFVVITIDTNSTFDYPSSRSSQQMAALRQVASLNGDSSSPIYGKVDTARMGVMGHSMGGGASLRSAANNPSLKAAIPQAPWDSQTNFSSVTVPTLIFACENDSIAPVNSHALPIYDSMSRNAKQFLEINGGSHSCANSGNSNQALIGKKGVAWMKRFMDNDTRYSTFACENPNSTAVSDFRTANCS [DuraPETase] , state whether its terephthalic acid is at least 0.5 mM.
stdout: FALSE
